molecular target: glutathione reductase-like metalloid reductase (GRLMR) (Pseudomonas moraviensis stanleyae); experiment: negative binding assay: phage (input 10^10 pfu) on wells coated with unreacted GRLMR, acid-eluted phage titered on E. coli
Ends that are not written are not given here.
Each record here notes measured eluted phage titer (pfu).
Form entry: value (pfu) — number only.

GWHSPHAHWRVK-{M13 pIII} (peptide, not shown: large carriers, also: displayed on M13 phage pIII, linker not given here) [SeBP4 (…) displayed on M13 phage] = 330000
GPHHMHHHRTHH-{M13 pIII} (peptide, not shown: large carriers, also: displayed on M13 phage pIII, linker not given here) [SeBP2 (…) displayed on M13 phage] = 2.1e+09
WPRHHWHTNYMR-{M13 pIII} (peptide, not shown: large carriers, also: displayed on M13 phage pIII, linker not given here) [SeBP3 (…) displayed on M13 phage] = 3.9e+08

# input for lookup
So what does the record say about eluted phage titer (pfu) for THYNPLRINPIT-{M13 pIII} (peptide, not shown: large carriers, also: displayed on M13 phage pIII, linker not given here) [SeBP5 (…) displayed on M13 phage] ?
680000

Cited source: patent US12339286B2
